Biological target: PD-1/PD-L1 (Homo sapiens (Human))
Sequence (Q9NZQ7 19-238): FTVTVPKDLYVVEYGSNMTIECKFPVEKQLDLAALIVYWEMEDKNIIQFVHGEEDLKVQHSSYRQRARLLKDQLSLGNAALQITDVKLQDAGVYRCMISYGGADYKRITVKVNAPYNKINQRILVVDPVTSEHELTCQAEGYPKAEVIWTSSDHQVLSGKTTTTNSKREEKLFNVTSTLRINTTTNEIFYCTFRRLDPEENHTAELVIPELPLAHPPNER
Assay: PD-1/PD-L1 biochemical protein-protein interaction assay (ALPHA)
Conditions: 0.3 nM His tagged PD-L1, 2.5 nM biotinylated Fc-PD-1, 60 minutes at 25° C., read-out: IC50 PD-L1-PD1
recorded-endpoint: IC50 (nM)

Solved entries (count: 3):
COc1nc(-c2cccc(-c3cccc(-c4cnc(CN5CCC(c6ccncc6)C5)c(OC)n4)c3Cl)c2Cl)cnc1CNC[C@@H]1CCC(=O)N1 (stereo partly shown)
0.316
COc1nc(-c2cccc(-c3cccc(-c4cnc(CN5CC(C)(O)C5)c(OC)n4)c3Cl)c2Cl)cnc1CN1CC(C)(O)C1
0.06
COc1nc(-c2cccc(-c3cccc(-c4cnc(CN5CCC(c6cc[nH]n6)C5)c(OC)n4)c3Cl)c2Cl)cnc1CNC[C@@H]1CCC(=O)N1 (stereo partly shown)
0.342

P: COc1nc(-c2cccc(-c3cccc(-c4cnc(CN5CC(C)(O)C5)c(OC)n4)c3Cl)c2Cl)cnc1CN
Q: COc1nc(-c2cccc(-c3cccc(-c4cnc(CNC[C@@H]5CCC(=O)N5)c(OC)n4)c3Cl)c2Cl)cnc1CNC[C@@H]1CNC(=O)C1
R: Cc1nc(-c2cccc(-c3cccc(-c4cnc(CN5CC(O)C5)c(C)n4)c3Cl)c2Cl)cnc1CN1CC(O)C1
Enquiry: Output the entries ranked by IC50 from maximum down to minimum. Write the labels out in the order the request specifies.
Return: R, P, Q
(R: 0.566 nM, P: 0.181 nM, Q: 0.064 nM)

A: COc1nc(-c2cccc(-c3cccc(-c4cnc(CN5CC6(CNC(=O)C6)C5)c(OC)n4)c3Br)c2Cl)cnc1CN1CC2(CNC(=O)C2)C1
B: COc1nc(-c2cccc(-c3cccc(-c4cnc5c(CNC[C@H]6C[C@H](O)C6)cn(C)c5n4)c3Cl)c2Cl)cnc1CNC[C@H]1CCC(=O)N1
C: COc1nc(-c2cccc(-c3cccc(-c4cnc(CNCC5CCN(C(N)=O)C5)c(OC)n4)c3Cl)c2Cl)cnc1CNCC1CCN(C(N)=O)C1 (stereo not shown)
D: COC1CN(Cc2ncc(-c3cccc(-c4cccc(-c5cnc(CN6CC(OC)C6)c(N(C)C)n5)c4Cl)c3Cl)nc2Cl)C1
Enquiry: Would you mind ranking these molecules by ascending IC50? Write the labels out in the order the request specifies.
Return: B, C, A, D

1: COc1nc(-c2cccc(-c3cccc(-c4cnc(CN5CC(O)C5)c(OC)n4)c3Br)c2Cl)cnc1CN1CC(O)C1
2: COc1nc(-c2cccc(-c3cccc(-c4cnc(C5=NC[C@@H](C)N5)c(OC)n4)c3Cl)c2Cl)cnc1C1=NC[C@@H](C)N1
Enquiry: Of 1 and 2 , which one carries the higher reported IC50? Lab log: write the label of the selected item as the result.
Return: 1
